Assay: in vitro
Conditions: human, hela cells, % viability
measure.name: viability at 28.5 h, 10 µM (%)
Answers are plain numbers, in %.

# molecule, viability at 28.5 h, 10 µM (%)
measured = [
    ("O=C(CN1CCOCC1)Nc1ccc(NC(=O)CN2CCOCC2)cc1 [CBK265045]", 95.9),
    ("CC(C)[C@@H](CO)Nc1cncc(-c2cccc(Cl)c2)n1 [CBK037261]", 102),
    ("Nc1nc(CN2CCN(c3ccccc3F)CC2)nc(N2CCCc3ccccc32)n1 [CBK270234]", 87.4),
    ("S=C(NCC1CCN(C(=S)NC2CCCCC2)CC1)NC1CCCCC1 [CBK004987]", 87.7),
    ("O=C(O)C(Cc1c[nH]cn1)N1C(=O)C2C3C=CC(C3)C2C1=O (stereo not shown) [CBK286705]", 88),
]

Below are 7 molecules. Give each one its viability at 28.5 h, 10 µM.
1. O=C(CCn1cncn1)N[C@H]1C2CCCCC2[C@@H]1c1ccccc1 (stereo partly shown) [CBK282970]
2. O=C(Nc1ccccc1Cl)N1CCN(c2ccc(F)cc2)CC1 [CBK117849]
3. O=c1[nH]c(=O)c2cc(S(=O)(=O)Nc3ccccc3-c3ccccc3)ccc2[nH]1 [CBK286374]
4. Cc1noc(C)c1CN1CCC(c2ccccc2)C1 (stereo not shown) [CBK304451]
5. CC(O)(c1ccncc1)c1nccs1 (stereo not shown) [CBK281504]
6. CC(C)C(=O)Nc1cc2cccnc2nc1-c1ccc(N(C)C)cc1 [CBK073650]
7. O=C1c2ccccc2NC(C(=O)O)(c2ccccc2)N1c1ccccc1Cl (stereo not shown) [CBK287169]

Key:
1: 100; 2: 95.7; 3: 102; 4: 109; 5: 90.1; 6: 90.6; 7: 81

Below are 2 molecules. Give each one its viability at 28.5 h, 10 µM.
1. COc1ccc(C(=O)C2=C(O)C(=O)N(CCCN(C)C)C2c2ccc(Cl)c(Cl)c2)cc1 (stereo not shown) [CBK264723]
2. COc1ccccc1CNCCCN1CCOCC1 [CBK278310C]

Key:
1: 94.4; 2: 96.2

Below are 3 molecules. Give each one its viability at 28.5 h, 10 µM.
1. Cc1cccnc1NC(=O)C1CCCN1S(=O)(=O)c1ccc(Cl)cc1 (stereo not shown) [CBK269914]
2. CCOC(=O)CCNC(=O)c1cc2cccc(OC)c2o1 [CBK149816]
3. NS(=O)(=O)c1ccc(NC(=S)NCCN2CCOCC2)cc1 [CBK265818]

Key:
1: 83.2; 2: 88.1; 3: 107

Below are 6 molecules. Give each one its viability at 28.5 h, 10 µM.
1. O=C(c1ccco1)N1CCc2c([nH]c3ccccc23)C12CCN(Cc1ccccc1)CC2 [CBK286313]
2. COc1ccc(Oc2cncc(OC3CCN(CC4CCCCC4)C3)n2)cc1OC (stereo not shown) [CBK084413]
3. C=C(C)CNC(=O)c1ccc(C)nc1N1CCN(C(=O)c2ccco2)CC1 [CBK076401]
4. Cc1cc(-c2ccc([N+](=O)[O-])cc2)nc2ccc3ccccc3c12 [CBK263253C]
5. O=[N+]([O-])c1ccc(NC(c2ccccc2)C2CC2)nc1 (stereo not shown) [CBK295317]
6. O=C(CN1C(=O)c2ccc(Br)cc2C1=O)OCc1ccc(S(=O)(=O)N2CCOCC2)cc1 [CBK267505]

Key:
1. 91
2. 96.4
3. 94.8
4. 90.3
5. 96.6
6. 84.6
